Measured values drawn from BigSolDB 2.1 for this set.

- Test Parameters: in ethyl acetate, 298.15 K
Assay Metric: solubility (mole fraction)

- Smiles Representation: "O=[N+]([O-])c1cn[nH]c1"
  Recorded Result: 0.00759

###

- Test Parameters: in isobutanol, 288.15 K

- Smiles Representation: "O=[N+]([O-])c1cn[nH]c1"
  solubility (mole fraction): 0.0549

###

- Test Parameters: in n-butanol, 303.15 K
Assay Metric: solubility (mole fraction)

- Smiles Representation: "O=[N+]([O-])c1cn[nH]c1"
  Recorded Result: 0.12

###

- Test Parameters: in isopentanol, 293.15 K

- Smiles Representation: "O=[N+]([O-])c1cn[nH]c1"
  solubility (mole fraction): 0.0732
